B1: MFF (parent)
chain: MAEISRIQYEMEYTEGISQRMRVP

Variants of: B1
run description: protein stability index of a GFP-peptide fusion (GPS, HEK-293T) (PSI 1-6); higher = more stable;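 note: lentivirally expressed fusions sorted by FACS into six bins by GFP to DsRed ratio, PSI derived from sequencing read proportions per bin multiplied by bin number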
test settings: c terminus: a fixed tail appended
endpoint label: protein stability index
Answer using only a numeral; do not append any unit.

protein stability index recorded for this variant, MAEISRIQYEDEYTEGISQRMRVP [M11D] , is 3.61

protein stability index recorded for this variant, MAEISRIQYEREYTEGISQRMRVP [M11R] , is 3.19

protein stability index recorded for this variant, MAEISRIQYEMEYTEGISQGMRVP [R20G] , is 2.14

protein stability index recorded for this variant, MAEISRIQYEMEYTEGESQRMRVP [I17E] , is 3.36

protein stability index recorded for this variant, MAEISRIQYEMPYTEGISQRMRVP [E12P] , is 2.81

protein stability index recorded for this variant, MAEISRIQYVMEYTEGISQRMRVP [E10V] , is 1.89

protein stability index recorded for this variant, MAEIPRIQYEMEYTEGISQRMRVP [S5P] , is 3.52

protein stability index recorded for this variant, MAEISRIQYEMEYTEGISQRMGVP [R22G] , is 2.46

protein stability index recorded for this variant, MAEISRIQYEMEYTEAISQRMRVP [G16A] , is 2.69

protein stability index recorded for this variant, MAEISRIQYEMEYTEGISQRMRMP [V23M] , is 2.63

protein stability index recorded for this variant, MAEISRIQYEMEYTEGISQRHRVP [M21H] , is 3.6

protein stability index recorded for this variant, MAEISRIQYESEYTEGISQRMRVP [M11S] , is 3.19

protein stability index recorded for this variant, MAEIIRIQYEMEYTEGISQRMRVP [S5I] , is 2.11

protein stability index recorded for this variant, MAEISRIQGEMEYTEGISQRMRVP [Y9G] , is 3.6

protein stability index recorded for this variant, MAEISRIHYEMEYTEGISQRMRVP [Q8H] , is 2.47

protein stability index recorded for this variant, MAEISRIQYEMEYGEGISQRMRVP [T14G] , is 2.75

protein stability index recorded for this variant, MLEISRIQYEMEYTEGISQRMRVP [A2L] , is 1.86

protein stability index recorded for this variant, MAEISRIQYEMEYTEGISCRMRVP [Q19C] , is 2.41

protein stability index recorded for this variant, MAEISRTQYEMEYTEGISQRMRVP [I7T] , is 3.4

protein stability index recorded for this variant, MAEISRIQYEMEYTEGMSQRMRVP [I17M] , is 2.35

protein stability index recorded for this variant, MAEISRIQYEMEYTEGISIRMRVP [Q19I] , is 1.89

protein stability index recorded for this variant, MAEISRIQMEMEYTEGISQRMRVP [Y9M] , is 2.42
